- Target of assay: full-length FLAG-tagged B-Raf(V600E) (Homo sapiens (Human), UniProt P15056, V600E)
- Sequence (P15056 whole entry V600E): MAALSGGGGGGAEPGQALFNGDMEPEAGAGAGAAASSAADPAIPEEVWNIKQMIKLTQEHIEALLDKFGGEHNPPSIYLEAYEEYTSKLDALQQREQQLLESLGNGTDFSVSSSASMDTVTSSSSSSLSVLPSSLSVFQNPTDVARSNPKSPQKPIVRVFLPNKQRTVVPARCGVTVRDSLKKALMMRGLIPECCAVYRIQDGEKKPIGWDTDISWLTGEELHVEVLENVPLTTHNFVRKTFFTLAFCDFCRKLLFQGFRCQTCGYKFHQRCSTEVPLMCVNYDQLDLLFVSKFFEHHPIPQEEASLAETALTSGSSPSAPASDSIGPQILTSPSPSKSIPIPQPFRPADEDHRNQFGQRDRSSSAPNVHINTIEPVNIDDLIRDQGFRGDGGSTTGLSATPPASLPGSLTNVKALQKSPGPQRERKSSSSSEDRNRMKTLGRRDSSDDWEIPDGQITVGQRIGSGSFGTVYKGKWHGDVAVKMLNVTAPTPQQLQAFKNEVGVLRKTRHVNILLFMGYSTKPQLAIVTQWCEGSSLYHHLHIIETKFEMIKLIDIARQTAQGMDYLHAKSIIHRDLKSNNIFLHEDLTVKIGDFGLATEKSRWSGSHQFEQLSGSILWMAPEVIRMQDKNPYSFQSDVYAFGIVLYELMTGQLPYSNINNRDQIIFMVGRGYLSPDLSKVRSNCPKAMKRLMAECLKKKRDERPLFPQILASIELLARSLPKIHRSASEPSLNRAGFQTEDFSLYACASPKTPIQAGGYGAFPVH
- Test: BRAF V600E enzyme assay (TR-FRET competitive displacement)
- Format: binding
- Measurement setup: averaged IC50; TR-FRET tracer displacement, 60 min
Where a name gives a salt, the structure may show the parent alone.
Readout: IC50 (nM)

1) CO[C@@H]1CCN(S(=O)(=O)Nc2cc(F)c(F)c(Nc3ccc4ncn(C)c(=O)c4c3F)c2Cl)C1 [Example 47, trifluoroacetate]: 2
2) Cn1cnc2ccc(Nc3c(F)ccc(NS(=O)(=O)N4CC5(CCC5)C4)c3Cl)c(F)c2c1=O [Example 159, trifluoroacetate]: 8

1. Cc1c(Nc2c(F)ccc(NS(=O)(=O)N(C)C3CCOC3)c2Cl)ccc2ncn(C)c(=O)c12 (stereo not shown)
2. CO[C@@H]1CCN(S(=O)(=O)Nc2cc(F)c(F)c(Nc3ccc4ncn(C)c(=O)c4c3Cl)c2Cl)C1 [Example 32, trifluoroacetate]
Between the two listed entries 1 and 2 , which has its IC50 at the higher number? Your answer should be the label attached to the chosen record.
1
(1: 299 nM, 2: 2 nM)

* * *

- Target of assay: P-gp (MDR1) (Homo sapiens (Human))
- Sequence (P08183 whole entry, species assumed): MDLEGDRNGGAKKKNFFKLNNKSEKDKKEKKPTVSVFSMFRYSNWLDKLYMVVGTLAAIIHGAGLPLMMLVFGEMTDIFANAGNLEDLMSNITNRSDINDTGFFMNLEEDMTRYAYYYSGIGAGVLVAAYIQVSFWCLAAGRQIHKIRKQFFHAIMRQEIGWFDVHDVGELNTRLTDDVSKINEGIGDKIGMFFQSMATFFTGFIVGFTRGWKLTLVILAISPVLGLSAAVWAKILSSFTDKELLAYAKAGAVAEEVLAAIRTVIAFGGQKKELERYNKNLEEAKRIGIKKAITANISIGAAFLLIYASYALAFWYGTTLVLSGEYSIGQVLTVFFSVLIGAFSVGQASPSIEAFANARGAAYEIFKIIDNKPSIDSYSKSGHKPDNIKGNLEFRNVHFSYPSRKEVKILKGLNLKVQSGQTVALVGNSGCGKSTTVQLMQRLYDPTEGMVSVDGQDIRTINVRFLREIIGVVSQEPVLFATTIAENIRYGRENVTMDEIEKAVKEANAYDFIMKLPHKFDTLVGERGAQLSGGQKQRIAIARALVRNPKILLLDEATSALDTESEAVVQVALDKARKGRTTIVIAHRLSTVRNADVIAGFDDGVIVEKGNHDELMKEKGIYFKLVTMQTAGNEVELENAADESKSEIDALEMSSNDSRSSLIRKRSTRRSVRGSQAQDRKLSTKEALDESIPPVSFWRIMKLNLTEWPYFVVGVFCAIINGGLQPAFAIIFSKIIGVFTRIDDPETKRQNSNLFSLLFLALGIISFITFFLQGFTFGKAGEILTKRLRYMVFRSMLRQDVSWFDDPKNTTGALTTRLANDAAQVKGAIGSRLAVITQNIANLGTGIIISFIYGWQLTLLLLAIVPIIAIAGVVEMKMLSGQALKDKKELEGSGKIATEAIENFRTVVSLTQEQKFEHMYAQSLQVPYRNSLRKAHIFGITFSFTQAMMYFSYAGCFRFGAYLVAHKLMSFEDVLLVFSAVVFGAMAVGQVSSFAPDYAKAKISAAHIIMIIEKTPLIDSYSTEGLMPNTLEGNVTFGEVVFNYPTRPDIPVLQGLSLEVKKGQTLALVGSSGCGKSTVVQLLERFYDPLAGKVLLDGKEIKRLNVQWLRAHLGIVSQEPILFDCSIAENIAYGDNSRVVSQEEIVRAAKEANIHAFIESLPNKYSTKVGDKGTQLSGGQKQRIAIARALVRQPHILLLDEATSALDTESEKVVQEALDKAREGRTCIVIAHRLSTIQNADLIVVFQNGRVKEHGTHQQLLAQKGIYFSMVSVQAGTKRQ
- Test: MDR1 LLC-PK1 permeability assay: efflux ratio
- Format: in vitro ADME
- Measurement setup: pig
Counter-ions that a name gives are not always drawn.
Readout: efflux ratio at 2 h, 1 µM

Sample records with efflux ratio at 2 h, 1 µM:
1. Cc1c(Nc2c(F)c(F)cc(NS(=O)(=O)N3CCCC3)c2Cl)ccc2ncn(C)c(=O)c12: 1.2
2. COC1CN(S(=O)(=O)Nc2ccc(F)c(Oc3ccc4ncn(C)c(=O)c4c3C)c2Cl)C1: 1.5
3. CO[C@@H]1CCN(S(=O)(=O)Nc2ccc(F)c(Nc3ccc4ncn(C)c(=O)c4c3C)c2Cl)C1: 1.7
4. Cn1cnc2ccc(Nc3c(F)ccc(NS(=O)(=O)N4CC5CC4C5)c3Cl)c(Cl)c2c1=O [Example 9, trifluoroacetate]: 1.1

a. Cc1c(Nc2c(F)ccc(NS(=O)(=O)N3CC(F)(F)C3)c2Cl)ccc2ncn(C)c(=O)c12
b. Cn1cnc2ccc(Nc3c(F)ccc(NS(=O)(=O)N4CC(OC(F)F)C4)c3Cl)c(F)c2c1=O
Please indicate which has the smaller reported efflux ratio at 2 h, 1 µM: a , or b . Return value: the label identifying the chosen record.
a
(a: 1.4, b: 5.2)

* * *

- Test: MDR1 LLC-PK1 and BCRP MDCKII permeability assay: permeability coefficient (Papp)
- Format: in vitro ADME
Structures can show the parent of a compound that is named as a salt.
Readout: Papp at 2 h, 1 µM (×10⁻⁶ cm/s)

Take a look at these entries with their results.
1. Cc1c(Nc2cc(F)cc(NS(=O)(=O)N3CCCC3)c2F)ccc2ncn(C)c(=O)c12: 26
2. Cn1cnc2ccc(Nc3c(F)ccc(NS(=O)(=O)N4C[C@@H](F)[C@@H](F)C4)c3Cl)c(F)c2c1=O: 26
3. Cc1c(Nc2c(F)ccc(NS(=O)(=O)N3CC(OC(F)F)C3)c2Cl)ccc2ncn(C)c(=O)c12: 27
4. Cn1cnc2ccc(Nc3c(F)c(F)cc(NS(=O)(=O)N4CC[C@@H](F)C4)c3F)c(Cl)c2c1=O [Example 36, trifluoroacetate]: 25
5. Cc1c(Nc2c(F)ccc(NS(=O)(=O)N3CCC4(CC4)C3)c2Cl)ccc2ncn(C)c(=O)c12 [Example 82, trifluoroacetate]: 13

P. Cn1cnc2ccc(Nc3c(F)ccc(NS(=O)(=O)N4CC(F)C4)c3Cl)c(Cl)c2c1=O
Q. CCN(C)S(=O)(=O)Nc1ccc(F)c(Oc2ccc3ncn(C)c(=O)c3c2C)c1Cl
Select one. Lower Papp at 2 h, 1 µM: P or Q Kindly give the label for the entry you pick.
Q
(Q: 25 ×10⁻⁶ cm/s, P: 44 ×10⁻⁶ cm/s)
